Entries and their measured pIC50 follow.
# SYSTEM UNDER TEST: p97 (Homo sapiens, UniProt P55072)
# Sequence (P55072 whole entry): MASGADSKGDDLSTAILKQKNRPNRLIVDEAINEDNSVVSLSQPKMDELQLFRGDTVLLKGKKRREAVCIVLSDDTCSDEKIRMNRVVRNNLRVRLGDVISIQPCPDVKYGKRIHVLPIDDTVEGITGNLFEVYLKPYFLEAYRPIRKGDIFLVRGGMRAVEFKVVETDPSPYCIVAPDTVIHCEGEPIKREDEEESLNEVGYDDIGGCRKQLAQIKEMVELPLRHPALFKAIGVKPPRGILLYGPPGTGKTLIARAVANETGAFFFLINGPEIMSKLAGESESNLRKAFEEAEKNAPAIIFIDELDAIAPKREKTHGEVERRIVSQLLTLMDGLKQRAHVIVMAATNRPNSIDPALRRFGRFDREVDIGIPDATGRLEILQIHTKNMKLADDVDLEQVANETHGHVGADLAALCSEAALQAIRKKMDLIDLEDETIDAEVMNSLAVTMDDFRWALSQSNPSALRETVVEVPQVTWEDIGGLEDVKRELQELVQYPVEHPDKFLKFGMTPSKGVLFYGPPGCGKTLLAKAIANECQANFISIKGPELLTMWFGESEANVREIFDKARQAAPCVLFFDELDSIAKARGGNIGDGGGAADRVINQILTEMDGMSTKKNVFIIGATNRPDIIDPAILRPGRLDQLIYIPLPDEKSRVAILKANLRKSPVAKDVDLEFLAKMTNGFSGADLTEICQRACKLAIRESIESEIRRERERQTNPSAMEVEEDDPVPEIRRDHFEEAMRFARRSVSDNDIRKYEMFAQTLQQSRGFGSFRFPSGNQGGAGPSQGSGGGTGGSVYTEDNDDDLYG
# ASSAY NOTES: P97 ATPase biochemical assay (ADP Glo)
# CONDITIONS USED: 20 nM p97, 20 uM ATP, 37 degC 15 min
pIC50: −log10 of the molar value.

Please provide the recorded pIC50 for COCc1cnc(-n2c(C)cc3c(C(N)=O)cccc32)nc1NCc1ccccc1 , tested on p97 (Homo sapiens, UniProt P55072).
> 6.52

Under p97 (Homo sapiens, UniProt P55072): pIC50 value of Cc1cc2c(C(N)=O)cccc2n1-c1ncc(N(C)C)c(NCc2ccccc2)n1 ?
> 7.52

Param readout = pIC50; param system = p97 (Homo sapiens, UniProt P55072); param query = COCCOc1cnc(-n2c(C)cc3c(C(N)=O)cccc32)nc1NCc1ccccc1 ; response: value
> 7.00

Given the entry Cc1cc2c(C(N)=O)cccc2n1-c1ncc(OC(C)C)c(NCc2ccccc2)n1 , what pIC50 was observed with p97 (Homo sapiens, UniProt P55072)?
> 7.00

----------
# SYSTEM UNDER TEST: p97 (Homo sapiens, UniProt P55072)
# ASSAY NOTES: P97 ATPase biochemical assay (ADP Glo)
# CONDITIONS USED: Table II, preliminary assays
Please use class 1 for IC50 under 10 nM and class 0 for everything else, ties included.

SMILES INPUT	LABEL CLASS
Cc1cnc(-n2c(C)cc3c(C(N)=O)cccc32)nc1NCc1ccccc1	class 0
Cc1cc2c(C(N)=O)cccc2n1-c1ncc(C(C)C)c(NCc2ccccc2)n1	class 1
Cc1cc2c(C(N)=O)cccc2n1-c1ncc(Cl)c(NCc2ccccc2)n1	class 0

Say whether its IC50 is strictly beneath 10 nM. Entry: COc1cnc(-n2c(C)cc3c(C(N)=O)cccc32)nc1NCc1ccccc1
class 1

# check: IC50 < 10 nM for Cc1cc(NCc2ccccc2)nc(-n2c(C)cc3c(C(N)=O)cccc32)n1
class 0

----------
The following compounds are shown together with reported IC50 values.
# SYSTEM UNDER TEST: p97 (Homo sapiens)
# ASSAY NOTES: P97 ATPase biochemical assay (ADP Glo)
# CONDITIONS USED: 20 nM p97, 20 uM ATP, 37 degC 15 min

COMPOUND	IC50
Cc1nc(-n2c(C)cc3c(C(N)=O)cccc32)nc(NCc2ccccc2)c1N(C)C [Example 15]	< 30 nM
CC(=O)NCc1cnc(-n2c(C)cc3c(C(N)=O)cccc32)nc1NCc1ccccc1 [Example 24]	< 300 nM
COc1cnc(-n2c(C)cc3c(C(N)=O)cccc32)nc1NCc1ccccc1 [Example 3]	< 30 nM

For the record Cc1nc(-n2ncc3c(C(N)=O)cccc32)nc(NCc2ccccc2)c1C(C)C [Example 11] , what value of IC50 is listed for p97 (Homo sapiens)?
< 300 nM

----------
# SYSTEM UNDER TEST: UniProt:P55072
# ASSAY NOTES: P97 ATPase biochemical assay (ADP Glo)
# CONDITIONS USED: 20 nM p97, 20 uM ATP, 37 degC 15 min
pIC50: −log10 of the molar value. Counter-ions that a name gives are not always drawn.
READOUT NAME: pIC50

MOLECULE	pIC50
Cc1cnc(-n2c(CN)cc3c(C(N)=O)cccc32)nc1NCc1ccccc1 [Example 31, Hydrochloride]	> 6.00
CNCc1cnc(-n2c(C)cc3c(C(N)=O)cccc32)nc1NCc1ccccc1 [Example 23]	> 6.00
COc1c(C)nc(-n2c(C)cc3c(C(N)=O)cccc32)nc1NCc1ccccc1 [Example 7]	> 7.52

Here's the next entry for you.
I am curious: what pIC50 value has been reported for Cc1cc2c(C(N)=O)cccc2n1-c1ncc(N)c(NCc2ccccc2)n1 [Example 17] ?
> 6.00

----------
# IC50 annotations
# SYSTEM UNDER TEST: p97 (Homo sapiens, UniProt P55072)
# ASSAY NOTES: P97 ATPase biochemical assay (ADP Glo)
# CONDITIONS USED: 20 nM p97, 20 uM ATP, 37 degC 15 min

Study these solved cases before continuing.
SMILES INPUT	RESULT
Cc1cc2c(C(N)=O)cccc2n1-c1ncc(C(N)=O)c(NCc2ccccc2)n1	< 100 nM
CCc1cnc(-n2c(C)cc3c(C(N)=O)cccc32)nc1NCc1ccccc1	< 30 nM
Cc1cc(NCc2ccccc2)nc(-n2c(C)cc3c(C(N)=O)cccc32)n1	< 100 nM
Cc1cc2c(C(N)=O)cccc2n1-c1ncc(Cl)c(NCc2ccccc2)n1	< 30 nM
CNCc1nc(-n2c(C)cc3c(C(N)=O)cccc32)nc(NCc2ccccc2)c1C	< 100 nM

Sample COc1nc(-n2c(C)cc3c(C(N)=O)cccc32)nc(NCc2ccccc2)c1C — what was its IC50?
< 30 nM

Returns the measured IC50 for the input compound. Input: CC(C)c1cnc(-n2c(CN)cc3c(C(N)=O)cccc32)nc1NCc1ccccc1
< 100 nM

Endpoint output: IC50 of Cc1cc2c(C(N)=O)cccc2n1-c1ncc(CN(C)C)c(NCc2ccccc2)n1 . Value?
< 1000 nM

# lookup: IC50 of CCc1cnc(-n2c(CN)cc3c(C(N)=O)cccc32)nc1NCc1ccccc1
< 300 nM

Given the compound Cc1cc2c(C(N)=O)cccc2n1-c1ncc(CN)c(NCc2ccccc2)n1 , what is its reported IC50?
< 300 nM

Query: IC50; subject: Cc1c(NCc2ccccc2)nc(-n2c(C)cc3c(C(N)=O)cccc32)nc1C(F)(F)F
< 30 nM

Need IC50, item Cc1cc2c(CN)cccc2n1-c1ncc(C(C)C)c(NCc2ccccc2)n1
< 1000 nM

// IC50 lookup, key: CCOc1cnc(-n2c(C)cc3c(C(N)=O)cccc32)nc1NCc1ccccc1
< 30 nM

For the compound Cc1cc2c(C(N)=O)cccc2n1-c1ncc(S(C)(=O)=O)c(NCc2ccccc2)n1 , what IC50 is on record?
< 100 nM

----------
Listed below: IC50 values for each entry.
# SYSTEM UNDER TEST: UniProt:P55072
# ASSAY NOTES: P97 ATPase biochemical assay (ADP Glo)
# CONDITIONS USED: 20 nM p97, 20 uM ATP, 37 degC 15 min

COMPOUND	RESULT
Cc1cc2c(C(N)=O)cccc2n1-c1ncc(OCCN)c(NCc2ccccc2)n1	< 1000 nM
Cc1nc(-n2c(C)cc3c(C(N)=O)cccc32)nc(NCc2ccccc2)c1C(C)C	< 30 nM
Cc1cc2c(C(N)=O)cccc2n1-c1ncc(C(C)C)c(NCc2ccccc2)n1	< 30 nM

Consider now this further compound.
Please give the measured IC50 for this compound: Cc1cc2c(C(N)=O)cccc2n1-c1ncc(C(C)N)c(NCc2ccccc2)n1 (stereo not shown)
< 100 nM

FYI, the data here is from patent US9868722B2.
